Biological target: 14-3-3γ (Homo sapiens, UniProt P61981)
Construct: made in house; host or cells: E. coli NiCo21 (DE3)
Sequence (P61981 whole entry): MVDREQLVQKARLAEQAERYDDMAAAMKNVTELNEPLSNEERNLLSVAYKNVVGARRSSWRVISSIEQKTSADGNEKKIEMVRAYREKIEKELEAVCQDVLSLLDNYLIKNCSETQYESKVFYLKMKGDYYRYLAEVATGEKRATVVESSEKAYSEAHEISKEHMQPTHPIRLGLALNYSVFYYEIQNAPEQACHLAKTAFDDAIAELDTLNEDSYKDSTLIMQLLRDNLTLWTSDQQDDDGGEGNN
Assay: Fluorescence anisotropy (FA) binary binding study: 14-3-3 titrated to fluorescein-labelled peptide
Conditions: Table S4; ΔG minus ΔG of 1, FA; replicate 2
Protocol: 14-3-3γ protein expression (FP/ITC experiments) A pPROEX HTb expression vector encoding the human 14-3-3 protein gamma (14-3-3γ) with an N-terminal his6-tag was transformed by heat shock into NiCo21 (DE3) competent cells. Single colonies were cultured in 50 mL LB medium (100 µg/mL ampicillin). After overnight incubation at 37 °C, cultures were transferred to 2 L TB media (100 µg/mL ampicillin, 1 mM MgCl2) and incubated at 37 °C until an OD600 nm of 0.8-1.2 was reached. […]
Where a SMILES comes first, the peptide text is derived from it. [ ]: non-standard residue; d: D form. ξ: configuration not given here. Phe(4-NO2) = N[C@@H](Cc1ccc([N+](=O)[O-])cc1)C(=O)O; ξAla(4-thiazolyl) = NC(Cc1cscn1)C(=O)O; pS = N[C@@H](COP(=O)(O)O)C(=O)O; β3hS = N[C@@H](CO)CC(=O)O; Nva = CCC[C@H](N)C(=O)O; βAla = NCCC(=O)O
Provide the reported ΔΔG to 1 of each item.
Could you give me the number in kcal/mol? Just the number is fine.

Which value of ΔΔG to 1 has been reported for CCC[C@H](NC(=O)[C@H](N)CCCCN)C(=O)N[C@@H](Cc1ccc([N+](=O)[O-])cc1)C(=O)N[C@@H](C)C(=O)N[C@@H](COP(=O)(O)O)C(=O)N[C@@H](Cc1ccc([N+](=O)[O-])cc1)C(=O)N[C@@H](CO)CC(=O)NCCC(=O)N[C@@H](Cc1ccc([N+](=O)[O-])cc1)C(=O)N[C@@H](CCCCN)C(N)=O [3a] (H-[dK][Nva][Phe(4-NO2)]A[pS][Phe(4-NO2)][β3hS][βAla][Phe(4-NO2)]K-NH2; N-terminus and C-terminus assumed) in the records?
-0.3

Requested field: ΔΔG to 1. Item: CCC[C@H](NC(=O)[C@H](N)CCCCN)C(=O)N[C@@H](Cc1ccc([N+](=O)[O-])cc1)C(=O)NC(Cc1cscn1)C(=O)N[C@@H](COP(=O)(O)O)C(=O)N[C@@H](Cc1ccc([N+](=O)[O-])cc1)C(=O)N[C@@H](CO)CC(=O)NCCC(=O)N[C@@H](Cc1ccccc1)C(=O)N[C@@H](CCCCN)C(N)=O (stereo partly drawn) [5b] (H-[dK][Nva][Phe(4-NO2)][ξAla(4-thiazolyl)][pS][Phe(4-NO2)][β3hS][βAla]FK-NH2; N-terminus and C-terminus assumed)
1.7

Field request: ΔΔG to 1 | item: CCC[C@H](NC(=O)[C@H](N)CCCCN)C(=O)N[C@@H](Cc1ccc([N+](=O)[O-])cc1)C(=O)NC(Cc1cscn1)C(=O)N[C@@H](COP(=O)(O)O)C(=O)N[C@@H](Cc1ccccc1)C(=O)N[C@@H](CO)CC(=O)NCCC(=O)N[C@@H](Cc1ccc([N+](=O)[O-])cc1)C(=O)N[C@@H](CCCCN)C(N)=O (stereo partly drawn) [4b] (H-[dK][Nva][Phe(4-NO2)][ξAla(4-thiazolyl)][pS]F[β3hS][βAla][Phe(4-NO2)]K-NH2; N-terminus and C-terminus assumed)
-0.5

Find the recorded ΔΔG to 1 belonging to CCC[C@H](NC(=O)[C@H](N)CCCCN)C(=O)N[C@@H](Cc1ccc([N+](=O)[O-])cc1)C(=O)NC(Cc1cscn1)C(=O)N[C@@H](COP(=O)(O)O)C(=O)N[C@@H](Cc1ccc([N+](=O)[O-])cc1)C(=O)N[C@@H](CO)CC(=O)NCCC(=O)N[C@@H](Cc1ccc(O)cc1)C(=O)N[C@@H](CCCCN)C(N)=O (stereo partly drawn) [5a] (H-[dK][Nva][Phe(4-NO2)][ξAla(4-thiazolyl)][pS][Phe(4-NO2)][β3hS][βAla]YK-NH2; N-terminus and C-terminus assumed) and report it.
1.7

Can you look up the measured ΔΔG to 1 of CCC[C@H](NC(=O)[C@H](N)CCCCN)C(=O)N[C@@H](Cc1ccc([N+](=O)[O-])cc1)C(=O)NC(Cc1cscn1)C(=O)N[C@@H](COP(=O)(O)O)C(=O)N[C@@H](Cc1ccc(O)cc1)C(=O)N[C@@H](CO)CC(=O)NCCC(=O)N[C@@H](Cc1ccc([N+](=O)[O-])cc1)C(=O)N[C@@H](CCCCN)C(N)=O (stereo partly drawn) [4a] (H-[dK][Nva][Phe(4-NO2)][ξAla(4-thiazolyl)][pS]Y[β3hS][βAla][Phe(4-NO2)]K-NH2; N-terminus and C-terminus assumed) for me?
-0.3
